Kindly state pKd for each of the entries shown.
target_of_assay: T1, human TL1A (Fitzgerald #30R-AT070) (human, UniProt O95150 72-251, limits assumed)
T1 construct: Coated on the ELISA plate at 1 ug/mL; also called TNFSF15
T1 sequence (looked up): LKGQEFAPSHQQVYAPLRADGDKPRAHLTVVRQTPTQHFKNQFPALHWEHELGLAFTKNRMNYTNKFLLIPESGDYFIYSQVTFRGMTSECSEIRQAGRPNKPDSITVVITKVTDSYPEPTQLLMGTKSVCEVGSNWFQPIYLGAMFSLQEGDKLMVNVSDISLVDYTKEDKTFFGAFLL
experimental_details: ELISA titration, coated human TL1A, culture supernatant
Note on pKd: it is the negative log10 of concentration, concentration in mol/L.

Q: Quick one: pKd of A31 (antibody, human IgG1, V domains shown, human IgG1/kappa (pFuse vectors), culture supernatant) VH: QVQLVQSGAEVKKPGASVKVSCKASGFDIQDTYMHWVRQAPGQGLEWMGRIEPASGHIKYDPKFQGRVTMTRDTSTSTVYMELSSLRSEDTAVYYCARSGGLPDWWGQGTTVTVSS VL: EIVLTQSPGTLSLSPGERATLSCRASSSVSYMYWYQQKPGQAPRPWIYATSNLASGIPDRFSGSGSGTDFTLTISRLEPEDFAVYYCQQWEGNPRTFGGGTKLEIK ?
Result: 10.04

Q: Quick one: pKd of A56 (antibody, human IgG1, V domains shown, human IgG1/kappa (pFuse vectors), culture supernatant) VH: QVQLVQSGAEVKKPGASVKVSCKASGFDIQDTYMHWVKQRPGQGLEWIGRIDPASGHTKYDPKFQVRATITTDTSTSTAYLELSSLRSEDTAVYYCARSGGLPDVWGQGTTVTVSS VL: EIVLTQSPGTLSASPGERATMSCRASSSVSYMYWYQQKPGQAPRPWIYATSNLASGIPDRFSGSGSGTDYTLTISRVEPEDFAVYYCQQWSGNPRTFGGGTKLEIK ?
Result: 9.94
